Test system: RXF 393 renal
methodNotes: NCI-60 one-dose screen, 48 h (100 = growth as untreated, 0 = no growth, -100 = all killed)
experimentalContext: 10 µM unless noted
This is part of a sample that, as a whole, favours compounds with a hit. Of some 83,000 tested, about 20% had one in any assay.
Please mark YES if the recorded growth is equal to or greater than 70%, and NO if it falls below.

- compound: "COc1ccc(/C=N/C2=C(C#N)C(c3ccccc3)c3ccc4ccccc4c3O2)cc1 (centres undefined)"
  classification: "NO"
- compound: "N#Cc1nc(-c2ccc(Cl)cc2)oc1S(=O)(=O)N1CCN(c2ccc(F)cc2)CC1"
  classification: "YES"
- compound: "C=CCn1c(SCC(=O)Nc2ccc(C(=O)/C=C/c3ccc(Cl)cc3)cc2)nnc1-c1ccc(Br)cc1"
  classification: "YES"
- compound: "COc1ccc(-c2nc3cc(C(=O)NCc4ccccc4)ccc3n2C2CCCCC2)cc1"
  classification: "YES"
- compound: "COc1cc2c(cc1OC)C(C)N(S(N)(=O)=O)CC2 (centres undefined)"
  classification: "YES"
- compound: "N#CC1=C(c2ccccc2)Nc2c(c(-c3ccc(Cl)cc3)nn2-c2ccccc2)C12C(=O)Nc1ccc(Cl)cc12 (centres undefined)"
  classification: "NO"
- compound: "COc1cc(/C=C2/C=C(c3ccccc3)N(CCc3ccc(S(N)(=O)=O)cc3)C2=O)cc(OC)c1OC"
  classification: "YES"
- compound: "COc1ccc(/C=N/NC(=O)c2ccc(-n3cc(-c4ccccc4)nn3)cc2)cc1OC"
  classification: "YES"
- compound: "CN1CCN(c2cc(Nc3cc(C4CC4)[nH]n3)nc(Nc3ccc(CC(=O)NCc4cccc(F)c4)cc3)n2)CC1"
  classification: "NO"

Just for reference, PubChem BioAssay (NCI) is where these values come from.
